biological target: T1, SARS-CoV2 spike RBD variant strain (SRD-C52H3, Acro Biosystems, E484K) (SARS-CoV-2, UniProt P0DTC2 319-537); experiment: BLI (Octet), biotinylated RBD on SA sensor, VHH as analyte, 1:1 fit
T1 construct: domain: RBD
Reported kon by item:
Give just the numeric value; M⁻¹ s⁻¹ need not be written.

Use these answered entries as a reference point.
Bacillus subtilis-derived VHH-COVE5 (VHH) VHH: EVQLVESGGGLVQAGGSLRLSCTASDQIFDNYNMAWFRQSPGKEREFVAALSWGDSNTGYADSVKGRFTISRDNAKNTVYLQMNSLKPEDTAVYYCYAVTWLRGDYWGQGTQVTVSS
39200
Bacillus subtilis-derived VHH-COVE7 (VHH) VHH: EVQLVESGGGLVQAGDSLRLSCTASGRTFSSCAMGWFRQAPGKEREFVAAISRGGGSTSYADSVKGRFTISKDRARNTAYLEMNSLKPEDTAIYYCYAVFPSGGDYWGQGTQVTVSS
88100
Bacillus subtilis-derived VHH-COVE9 (VHH) VHH: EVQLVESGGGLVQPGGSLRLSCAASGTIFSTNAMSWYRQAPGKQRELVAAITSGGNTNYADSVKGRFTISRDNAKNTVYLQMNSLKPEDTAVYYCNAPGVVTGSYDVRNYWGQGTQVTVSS
310000
Bacillus subtilis-derived VHH-COVE2 (VHH) VHH: AEVQLVESGGGLVQAGDSLRLSCAATRRTSSTYAMGWFRQAPGKGLEWVAAISWDGGRTYYAESVKGRFTISRDNAKNTVYLQMNSLKPEDTAVYYCYSFGGSDFLMDYWGQGTQVTVSSGGGSHHHHHH
106000

Now for another entry.
Incoming: Please give the measured kon for this binder: Bacillus subtilis-derived VHH-COVE8 (VHH) VHH: EVQLVESGGGLVQPGGSLTLSCAASGQTFSSYNMAWFRQSPGKEREFVATISWGGGSTGYADSVKGRFTISRDHAKNTVYLQMKDLKPEDTGAYYCYLVGLFGIQASDYWGQGTQVTVSS
Outgoing: 69700
